Where do the numbers come from? From ChEMBL document CHEMBL4808236.

- System: KB
- procedureText: Antiproliferative activity against human KB cells assessed as reduction in cell viability measured after 72 hrs by SRB assay
- Type: functional, cell-based
pIC50: −log10 of the molar value.
Catalogue of molecules with associated pIC50

Sample records with pIC50:
{"columns": ["molecule", "pIC50"],
 "data": [
  ["CCCC(=O)OCC1=C[C@H]2[C@@H]3C(C)(C)[C@]3(OC(=O)CCC)[C@H](OC(=O)/C=C/c3ccc(OC(C)=O)c(OC)c3)[C@@H](C)[C@]2(O)[C@@H]2C=C(C)C(=O)[C@@]2(O)C1", 5.07],
  ["CC/C=C/C/C=C/C/C=C/C/C=C/C/C=C/CCCC(=O)O[C@]12C([C@@H]3C=C(CO)C[C@]4(O)C(=O)C(C)=C[C@H]4[C@@]3(O)[C@H](C)[C@H]1O)C2(C)C (single isomer, unassigned)", "< 5.00"],
  ["CC(=O)O[C@@H]1[C@@H](C)[C@@]2(O)[C@@H](C=C(CO)C[C@]3(O)C(=O)C(C)=C[C@@H]23)[C@@H]2C(C)(C)[C@]12OC(C)=O", "< 5.00"],
  ["C/C=C(/C)C(=O)O[C@]12C([C@@H]3C=C(CO)C[C@]4(O)C(=O)C(C)=C[C@H]4[C@@]3(O)[C@H](C)[C@H]1O)C2(C)C (single isomer, unassigned)", "< 5.00"],
  ["C/C=C/C(=O)O[C@@H]1[C@@H](C)[C@@]2(O)[C@@H](C=C(CO)C[C@]3(O)C(=O)C(C)=C[C@@H]23)[C@@H]2C(C)(C)[C@]12OC(=O)/C=C/C", "< 5.00"]
]}

For the next question, use this molecule.
-- ask Return reported pIC50. Input molecule: CC(=O)OCC1=C[C@H]2[C@@H]3C(C)(C)[C@]3(OC(C)=O)[C@H](OC(C)=O)[C@@H](C)[C@]2(O)[C@@H]2C=C(C)C(=O)[C@@]2(O)C1
-- reply < 5.00

----------
- System: MT4
- procedureText: Cytotoxicity against human MT4 cells assessed as reduction in cell viability by CellTiter-Glo luminescence assay
- Assay type: cell-based
measuredMetric: CC75

{"columns": ["molecule", "systemTested", "result"],
 "data": [
  ["CC1=C[C@H]2[C@@]3(O)[C@H](C)[C@@H](OC(=O)CCc4ccccc4)[C@]4(OC(=O)CCc5ccccc5)[C@H]([C@@H]3C=C(CO)C[C@]2(O)C1=O)C4(C)C", "MT4", "> 5 µM"],
  ["C/C=C(/C)C(=O)O[C@]12C([C@@H]3C=C(CO)C[C@]4(O)C(=O)C(C)=C[C@H]4[C@@]3(O)[C@H](C)[C@H]1O)C2(C)C (single isomer, unassigned)", "MT4", "> 5 µM"],
  ["CCCCCCCCCCCCCCCCCCCC(=O)O[C@@H]1[C@@H](C)[C@@]2(O)[C@@H](C=C(CO)C[C@]3(O)C(=O)C(C)=C[C@@H]23)[C@@H]2C(C)(C)[C@]12OC(=O)CCCCCCCCCCCCCCCCCCC", "MT4", "> 5 µM"],
  ["C/C=C/C(=O)OCC1=C[C@H]2C3C(C)(C)[C@]3(OC(=O)/C=C/C)[C@H](O)[C@@H](C)[C@]2(O)[C@@H]2C=C(C)C(=O)[C@@]2(O)C1 (single isomer, unassigned)", "MT4", "> 5 µM"],
  ["COc1cc(/C=C/C(=O)O[C@@H]2[C@@H](C)[C@@]3(O)[C@@H](C=C(CO)C[C@]4(O)C(=O)C(C)=C[C@@H]34)[C@@H]3C(C)(C)[C@]23OC(C)=O)ccc1O", "MT4", "> 5 µM"],
  ["CC(=O)O[C@@]12[C@H](OC(=O)/C=C/c3ccc(Cl)cc3)[C@@H](C)[C@@]3(O)[C@@H](C=C(CO)C[C@]4(O)C(=O)C(C)=C[C@@H]34)[C@@H]1C2(C)C", "MT4", "> 5 µM"],
  ["CC1=C[C@H]2[C@@]3(O)[C@H](C)[C@@H](OC(=O)/C=C/c4ccccc4)[C@]4(OC(=O)/C=C/c5ccccc5)[C@H]([C@@H]3C=C(CO)C[C@]2(O)C1=O)C4(C)C", "MT4", "> 5 µM"],
  ["CC/C=C/C/C=C/C/C=C/C/C=C/C/C=C/CCCC(=O)O[C@]12C([C@@H]3C=C(CO)C[C@]4(O)C(=O)C(C)=C[C@H]4[C@@]3(O)[C@H](C)[C@H]1O)C2(C)C (single isomer, unassigned)", "MT4", "> 5 µM"],
  ["CC/C=C/C/C=C/C/C=C/C/C=C/C/C=C/CCCC(=O)O[C@@H]1[C@@H](C)[C@@]2(O)[C@@H](C=C(CO)C[C@]3(O)C(=O)C(C)=C[C@@H]23)[C@@H]2C(C)(C)[C@]12OC(C)=O", "MT4", "> 5 µM"],
  ["CC(=O)OCC1=C[C@H]2[C@@H]3C(C)(C)[C@]3(OC(C)=O)[C@H](OC(C)=O)[C@@H](C)[C@]2(O)[C@@H]2C=C(C)C(=O)[C@@]2(O)C1", "MT4", "> 5 µM"]
]}

-- ask Return reported CC75. Input molecule: CC/C=C/C/C=C/C/C=C/C/C=C/C/C=C/CCCC(=O)OCC1=C[C@H]2[C@@H]3C(C)(C)[C@]3(OC(=O)CCC/C=C/C/C=C/C/C=C/C/C=C/C/C=C/CC)[C@H](O)[C@@H](C)[C@]2(O)[C@@H]2C=C(C)C(=O)[C@@]2(O)C1
-- reply > 5 µM

-- ask Return reported CC75. Input molecule: Cc1cn([C@H]2C[C@H](N=[N+]=[N-])[C@@H](CO)O2)c(=O)[nH]c1=O
-- reply > 0.37 µM

-- ask Return reported CC75. Input molecule: CCCC(=O)O[C@]12C([C@@H]3C=C(CO)C[C@]4(O)C(=O)C(C)=C[C@H]4[C@@]3(O)[C@H](C)[C@H]1OC(=O)/C=C/c1ccccc1)C2(C)C (single isomer, unassigned)
-- reply > 5 µM

-- ask Return reported CC75. Input molecule: C/C=C/C(=O)O[C@@H]1[C@@H](C)[C@@]2(O)[C@@H](C=C(CO)C[C@]3(O)C(=O)C(C)=C[C@@H]23)[C@@H]2C(C)(C)[C@]12OC(=O)/C=C/C
-- reply > 10 µM

-- ask Return reported CC75. Input molecule: COc1cc(/C=C/C(=O)O[C@]23C([C@@H]4C=C(CO)C[C@]5(O)C(=O)C(C)=C[C@H]5[C@@]4(O)[C@H](C)[C@H]2O)C3(C)C)ccc1C(C)=O (single isomer, unassigned)
-- reply > 5 µM

-- ask Return reported CC75. Input molecule: CCCC(=O)O[C@]12C([C@@H]3C=C(CO)C[C@]4(O)C(=O)C(C)=C[C@H]4[C@@]3(O)[C@H](C)[C@H]1OC(=O)/C=C/c1ccc(O)c(OC)c1)C2(C)C (single isomer, unassigned)
-- reply > 5 µM

-- ask Return reported CC75. Input molecule: CC/C=C/C/C=C/C/C=C/C/C=C/C/C=C/CCCC(=O)O[C@@H]1[C@@H](C)[C@@]2(O)[C@@H](C=C(CO)C[C@]3(O)C(=O)C(C)=C[C@@H]23)[C@@H]2C(C)(C)[C@]12OC(=O)CCC
-- reply > 5 µM

-- ask Return reported CC75. Input molecule: CCCC(=O)OCC1=C[C@H]2C3C(C)(C)[C@]3(OC(=O)CCC)[C@H](OC(=O)/C=C/c3ccccc3)[C@@H](C)[C@]2(O)[C@@H]2C=C(C)C(=O)[C@@]2(O)C1 (single isomer, unassigned)
-- reply > 5 µM

-- ask Return reported CC75. Input molecule: CCCCCCCCCCCCCCCCCCCC(=O)O[C@]12C([C@@H]3C=C(CO)C[C@]4(O)C(=O)C(C)=C[C@H]4[C@@]3(O)[C@H](C)[C@H]1O)C2(C)C (single isomer, unassigned)
-- reply > 5 µM
